Record form. Attribute: pIC50. Fill in for each entry.
system: serotonin reuptake; assay: Inhibition of 3H-5-HT uptake into rat brain synaptosomes; format: biochemical; settings: ^3H-5-HT accumulation into whole rat brain synaptosomes
Structures can show the parent of a compound that is named as a salt.
Numbers only, as −log10 of the molar value.

// solved cases for pIC50 follow
compound	pIC50
N#Cc1ccc2c(c1)COC2(CCCN1CCC(c2c[nH]c3cc(Cl)ccc23)CC1)c1ccc(F)cc1 (stereo not drawn)	7.51
CN(CCCc1cccc2c1OCCO2)CCCC1(c2ccc(F)cc2)OCc2cc(C#N)ccc21 (single isomer, unassigned; (+)) [Compound 1b, oxalate]	7.89
CN(CCCC1(c2ccc(F)cc2)OCc2cc(C#N)ccc21)CCc1cccc2c1OCCO2 (stereo not drawn) [Compound 1c, oxalate]	7.07

Dear colleague, could you please provide pIC50 for the compounds listed below?
1. COc1ccccc1N1CCN(CCCC2(c3ccc(F)cc3)OCc3cc(C#N)ccc32)CC1 (stereo not drawn)
2. CN(CCCCc1cccc2c1OCCO2)CCCC1(c2ccc(F)cc2)OCc2cc(C#N)ccc21 (single isomer, unassigned; (+))
3. CN(CCCC1(c2ccc(F)cc2)OCc2cc(C#N)ccc21)CCc1c[nH]c2c(F)cccc12 (stereo not drawn) [Compound 12b]

Ans.
[6.47, 7.22, 8.00]
